tested on: MOLM-13; experiment: Proliferation inhibition, CellTiter-Glo, MOLM-13; type: cell-based, human; conditions: Homo sapiens, 96 h; MOLM-13 cells, IC50 (4 days), CellTiter-Glo; read-out: MOLM-13 IC50
pIC50: −log10 of the molar value.
Please provide measured pIC50 for the entries that follow.

Some solved cases for reference:
{"COMPOUND": "CCc1nc(C(N)=O)c(Nc2cncc(CCNC(=O)[C@H](C)N(C)C(=O)/C=C/CN(C)C)c2)nc1C1CC1 [Compound 306]", "PROPERTY": "pIC50", "RESULT": "8.00 to 9.00"}
{"COMPOUND": "CCc1nc(C(N)=O)c(Nc2cccc(CCNC(=O)C3(N(C)C(=O)/C=C/CN(C)C)CC3)c2)nc1C [Compound 223]", "PROPERTY": "pIC50", "RESULT": "7.00 to 8.00"}
{"COMPOUND": "C=CC(=O)N(C)[C@@H](C)C(=O)NCCc1cccc(Nc2nc(C)c(CC)nc2C(N)=O)c1 [Compound 216]", "PROPERTY": "pIC50", "RESULT": "7.00 to 8.00"}

Next compound, please.
MOLM-13 data for CCc1nc(C(N)=O)c(Nc2cccc(CCNC(=O)[C@H](C)N(C)C(=O)/C=C/CN(C)C)c2)nc1C1CC1 [Compound 138] ; its pIC50: 8.00 to 9.00

----------
Please provide measured pIC50 for the entries that follow.
tested on: MOLM-13; assay: Proliferation inhibition, CellTiter-Glo, MOLM-13; assay type: cell-based, human; conditions: Homo sapiens, 96 h; MOLM-13 cells, IC50 (4 days), CellTiter-Glo; read-out: MOLM-13 IC50
pIC50: −log10 of the molar value.

Some solved cases for reference:
{"MOLECULE": "CC#CC(=O)N(C)[C@@H](C)C(=O)NCCc1cccc(Nc2nc(N(C)C)c(CC)nc2C(N)=O)c1", "pIC50": "7.00 to 8.00"}
{"MOLECULE": "Cc1cc(C(N)=O)c(Nc2cccc(CCNC(=O)[C@H](C)N(C)C(=O)/C=C/CN(C)C)c2)nc1C1CC1", "pIC50": "7.00 to 8.00"}
{"MOLECULE": "CCc1nc(C(N)=O)c(Nc2cccc([C@@H](C)CNC(=O)CN(C)C(=O)/C=C/CN(C)C)c2)nc1C", "pIC50": "8.00 to 9.00"}
{"MOLECULE": "Cc1nc(C(N)=O)c(Nc2cc(F)cc(CCNC(=O)[C@H](C)N(C)C(=O)/C=C/CN(C)C)c2)nc1N(C)C", "pIC50": "7.00 to 8.00"}

State recorded pIC50 for all listed compounds.
1. CCN(C)c1nc(Nc2cccc(CCNC(=O)[C@H](C)N(C)C(=O)/C=C/CN(C)C)c2)c(C(N)=O)nc1C
2. CCc1nc(Nc2cccc([C@@H](C)CNC(=O)CN(C)C(=O)/C=C/CN(C)C)c2)c(C(N)=O)nc1CC
3. CCc1nc(C(N)=O)c(Nc2cccc(CCNC(=O)[C@H](C)N(C)C(=O)/C=C/CN3CC(F)C3)c2)nc1C

A)
["8.00 to 9.00", "> 9.00", "< 6.30"]

----------
Please provide measured pIC50 for the entries that follow.
test system: MOLM-13; test: Proliferation inhibition, CellTiter-Glo, MOLM-13; format: cell-based, human; conditions: Homo sapiens, 96 h; MOLM-13 cells, IC50 (4 days), CellTiter-Glo; read-out: MOLM-13 IC50
pIC50: −log10 of the molar value.

{"COMPOUND": "Cc1nc(C(N)=O)c(Nc2cccc(CCNC(=O)[C@H](C)N(C)C(=O)/C=C/CN(C)C)c2)nc1C1CC1", "RESULT": "8.00 to 9.00"}

State recorded pIC50 for all listed compounds.
1. CCc1nc(C(N)=O)c(Nc2cccc(CCNC(=O)CN(C)C(=O)/C=C/CN3CCC3)c2)nc1CC(C)C
2. [2H]C([2H])([2H])N(C/C=C/C(=O)N(C)[C@@H](C)C(=O)NCCc1cccc(Nc2nc(N(C)C(C)C)c(C)nc2C(N)=O)c1)C([2H])([2H])[2H]
3. C=CC(=O)N(C)[C@@H](C)C(=O)NCCc1cccc(Nc2nc(N(C)C(C)C)c(CC)nc2C(N)=O)c1
4. C=CC(=O)Nc1cccc(Nc2nc(N3CCC[C@H](NC(=O)c4ccc(C5CC5)cc4)[C@@H]3C)cnc2C(N)=O)c1 [Compound C-1, reference compound]
5. C=CC(=O)Nc1cc(Nc2nc(NC3CCOCC3)c(CC)nc2C(N)=O)ccc1N1CCC(N2CCN(C)CC2)CC1 [Compound C-2, reference compound]

A)
["8.00 to 9.00", "8.00 to 9.00", "8.00 to 9.00", "< 6.30", "7.00 to 8.00"]

----------
Please provide measured IC50 for the entries that follow.
Biological target: FLT3-ITD (Homo sapiens, UniProt P36888, DUP595-601)
Sequence (P36888 with tags, fused parts or gaps DUP595-601 limits assumed): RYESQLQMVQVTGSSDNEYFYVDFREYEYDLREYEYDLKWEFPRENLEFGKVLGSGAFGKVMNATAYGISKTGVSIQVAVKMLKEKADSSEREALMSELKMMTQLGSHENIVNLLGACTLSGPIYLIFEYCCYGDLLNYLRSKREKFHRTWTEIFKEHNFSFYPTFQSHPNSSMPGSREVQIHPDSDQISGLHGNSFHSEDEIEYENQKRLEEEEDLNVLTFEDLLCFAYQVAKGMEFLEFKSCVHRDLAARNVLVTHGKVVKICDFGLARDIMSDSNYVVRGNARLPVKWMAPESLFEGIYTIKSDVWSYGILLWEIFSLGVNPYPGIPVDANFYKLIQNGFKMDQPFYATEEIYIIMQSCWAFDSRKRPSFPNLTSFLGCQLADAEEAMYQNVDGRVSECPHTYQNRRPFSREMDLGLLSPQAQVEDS
Assay: FLT3-ITD Lance Ultra TR-FRET kinase assay

Some solved cases for reference:
{"MOLECULE": "CCc1nc(C(N)=O)c(Nc2cc(CCNC(=O)[C@H](C)N(C)C(=O)/C=C/CN(C)C)cc(OC)c2)nc1C1CC1 [Compound 144]", "IC50": "0.201 to 0.5 nM"}
{"MOLECULE": "CCc1nc(C(N)=O)c(Nc2cccc([C@@H](C)CNC(=O)CN(C)C(=O)/C=C/CN3CCC3)c2)nc1C1CC1 [Compound 506]", "IC50": "0.201 to 0.5 nM"}
{"MOLECULE": "CCc1nc(C(N)=O)c(Nc2cc(F)cc(CCNC(=O)CN(C)C(=O)/C=C/CN3CCC3)c2)nc1C1CC1 [Compound 516]", "IC50": "0.101 to 0.2 nM"}

Next molecule, please.
Reported IC50 for Cc1nc(C(N)=O)c(Nc2cc(F)cc(CCNC(=O)[C@H](C)N(C)C(=O)/C=C/CN(C)C)c2)nc1C1CC1 [Compound 254] was 0.501 to 1 nM

----------
tested on: K-562; test: Proliferation inhibition, CellTiter-Glo, K-562; type: cell-based, human; details: Homo sapiens, K562, 96 h; K-562 cells, IC50 (4 days), CellTiter-Glo; read-out: K-562 IC50
pIC50: −log10 of the molar value.
Please provide measured pIC50 for the entries that follow.

Some solved cases for reference:
{"MOLECULE": "[2H]C([2H])([2H])N(C/C=C/C(=O)N(C)[C@@H](C)C(=O)NCCc1cccc(Nc2nc(NC(C)C)c(CC)nc2C(N)=O)c1)C([2H])([2H])[2H]", "PROPERTY": "pIC50", "RESULT": "< 6.30"}
{"MOLECULE": "CCc1nc(C(N)=O)c(Nc2cccc(CCNC(=O)[C@H](C)N(C)C(=O)/C=C/CN(C)C)n2)nc1C1CC1", "PROPERTY": "pIC50", "RESULT": "< 6.30"}

Next molecule, please.
K-562 data for CCc1nc(C(N)=O)c(Nc2cccc(CCNC(=O)CN(C)C(=O)/C=C/CN(C)C)c2)nc1C1CC1 ; its pIC50: < 6.30

----------
Please provide measured pIC50 for the entries that follow.
system: MOLM-13; test: Proliferation inhibition, CellTiter-Glo, MOLM-13; assay type: cell-based, human; settings: Homo sapiens, 96 h; MOLM-13 cells, IC50 (4 days), CellTiter-Glo; read-out: MOLM-13 IC50
pIC50: −log10 of the molar value.

Some solved cases for reference:
{"MOLECULE": "C=CC(=O)N(C)[C@@H](C)C(=O)NCCc1cccc(Nc2nc(N(C)C)c(C)nc2C(N)=O)c1 [Compound 218]", "pIC50": "7.00 to 8.00"}
{"MOLECULE": "C=CC(=O)Nc1cc(Nc2nc(N[C@H]3CC[C@@](C)(O)CC3)c(CC)nc2C(N)=O)ccc1C [Compound C-3, reference compound]", "pIC50": "< 6.30"}
{"MOLECULE": "C#Cc1nc(C(N)=O)c(Nc2cccc(CCNC(=O)CN(C)C(=O)/C=C/CN(C)C)c2)nc1N(C)C(C)C [Compound 327]", "pIC50": "8.00 to 9.00"}
{"MOLECULE": "Cc1nc(Nc2cccc(CCNC(=O)[C@H](C)N(C)C(=O)/C=C/CN(C)C)c2)c(C(N)=O)nc1C [Compound 207]", "pIC50": "7.00 to 8.00"}
{"MOLECULE": "CCc1nc(C(N)=O)c(Nc2cc(F)cc(CCNC(=O)[C@H](C)N(C)C(=O)/C=C/CN(C)C)c2)nc1N(C)C [Compound 158]", "pIC50": "> 9.00"}
{"MOLECULE": "C=CC(=O)N(C)CC(=O)NCCc1cccc(Nc2nc(N(C)CC)c(CC)nc2C(N)=O)c1 [Compound 511]", "pIC50": "> 9.00"}

Next molecule, please.
MOLM-13 data for C=CC(=O)N(C)[C@@H](C)C(=O)NCCc1cccc(Nc2nc(N(C)C(C)C)c(C)nc2C(N)=O)c1 [Compound 231] ; its pIC50: 7.00 to 8.00

Source of measurements: patent US20240262795A1
